# assay.method.text: protein stability index of a GFP-peptide fusion (yeast GPS) (PSI 1-4); higher = more stable; sorted into four equal gates, so the index is relative within each strain
# test.context: doa10∆
Output True for protein stability index not less than 2; output False otherwise.

Ask: Is protein stability index at least 2? Consider MNLQNNVLNQIHQILLP [CSE2]
Result: True

Ask: Is protein stability index at least 2? Consider LLSLNSVRSLQKRIENG [SRP68]
Result: True

Ask: Is protein stability index at least 2? Consider KKKRSRTSATREDTPLS [ISW2]
Result: True

Ask: Is protein stability index at least 2? Consider EGIKETQAKRIFLQQFL [SWI1]
Result: True

Ask: Is protein stability index at least 2? Consider SHTQNIGHLIKTRFKGS [SMC2]
Result: True

Ask: Is protein stability index at least 2? Consider ERAARVAAKIAALAGQQ [RPL5]
Result: True

Ask: Is protein stability index at least 2? Consider LKIYKVGDIVDIKANGS [RPL21B]
Result: True

Ask: Is protein stability index at least 2? Consider VRILRLITTNSVEEVIL [SNF2]
Result: True

Ask: Is protein stability index at least 2? Consider PYPKSRYNRAVPDSKIR [RPL10]
Result: True

Ask: Is protein stability index at least 2? Consider NLEFDSTNHPDYDVSKK [SRP14]
Result: True

Ask: Is protein stability index at least 2? Consider EDVALNEQVKKFFLNNV [NAS6]
Result: True

Ask: Is protein stability index at least 2? Consider EKFSPKSFISKLLGIGD [SRP54]
Result: True

Ask: Is protein stability index at least 2? Consider TKKPLMVKNVKPSSPPD [SIR4]
Result: True

Ask: Is protein stability index at least 2? Consider KDVKARIAAGDGDDDDE [QCR9]
Result: False

Ask: Is protein stability index at least 2? Consider LPKYKEKKAASAKQTAP [MED7]
Result: True

Ask: Is protein stability index at least 2? Consider TEQFCATLNYIDKNHGF [SRB7]
Result: True

Ask: Is protein stability index at least 2? Consider NRLLPNLPEEERKQIHE [GRR1]
Result: False

Ask: Is protein stability index at least 2? Consider GIGALFTQQELQKQMGI [RPC34]
Result: True

Ask: Is protein stability index at least 2? Consider DTNNEADLMALENATWT [SNF12]
Result: True

Ask: Is protein stability index at least 2? Consider QKRIENGGNSVITLAEY [SRP68]
Result: True

Ask: Is protein stability index at least 2? Consider PDELIKAGVEAISQSLR [PRE5]
Result: True

Ask: Is protein stability index at least 2? Consider LNKEKLGPLFKKIVDDT [IRR1]
Result: True

Ask: Is protein stability index at least 2? Consider ILTDLVNYRHFKAMEDV [ITC1]
Result: True

Ask: Is protein stability index at least 2? Consider TFVYILEKLIFDMTNHY [SRB8]
Result: False

Ask: Is protein stability index at least 2? Consider PEMIKRSLLLSRVRADD [RRP43]
Result: True

Ask: Is protein stability index at least 2? Consider SSPSHIELVVTEKEEAV [RPL17A]
Result: True

Ask: Is protein stability index at least 2? Consider SRGLFEKKLMQDNKQLY [YDL116W/NUP84]
Result: True

Ask: Is protein stability index at least 2? Consider TKQRLDAYYDLELRNSV [PRP8]
Result: True

Ask: Is protein stability index at least 2? Consider GSTGGLGASFGQQQQQS [YGL172W/NUP49]
Result: True

Ask: Is protein stability index at least 2? Consider EVTKGEKTYTKAPKIQR [RPS6A]
Result: True

Ask: Is protein stability index at least 2? Consider LYRLSTPLRDEVTDKNY [PRP8]
Result: True

Ask: Is protein stability index at least 2? Consider LPSHIISTSDVTRIINS [RPL4A]
Result: True

Ask: Is protein stability index at least 2? Consider HEAYSIIEKITDQILQL [RRP45]
Result: True

Ask: Is protein stability index at least 2? Consider NVKEITEKLKISPESVF [SMC3]
Result: False

Ask: Is protein stability index at least 2? Consider FLNDVIPTTKNLRLLVE [DLS1]
Result: True

Ask: Is protein stability index at least 2? Consider GDIVLTRVTRLSLQRAN [CSL4]
Result: True

Ask: Is protein stability index at least 2? Consider KSNTIPVTSIPSTNKKL [GAL11]
Result: True

Ask: Is protein stability index at least 2? Consider HWPLNWYLILSIISSKT [RGR1]
Result: False

Ask: Is protein stability index at least 2? Consider KEIYTTLGNQMLSAHNI [YJR042W/NUP85]
Result: True

Ask: Is protein stability index at least 2? Consider TLIVVPFNQGSKQDVEA [FAS2]
Result: True

Ask: Is protein stability index at least 2? Consider IDVDMDASPAPSNESCS [SRB5]
Result: True

Ask: Is protein stability index at least 2? Consider RYKPKSHLWEIDIPLDE [RPC37]
Result: True

Ask: Is protein stability index at least 2? Consider AELIGLQPIFKGEEAKL [SSN3]
Result: True

Ask: Is protein stability index at least 2? Consider NNSGNDNNNTTNNDSNN [MED2]
Result: True

Ask: Is protein stability index at least 2? Consider FRSLFFRSYMDQEKKYG [RPB2]
Result: False

Ask: Is protein stability index at least 2? Consider QLTSLEKDCSLRAIEKN [YIL149C/MLP2]
Result: True

Ask: Is protein stability index at least 2? Consider RIFAIAFTRKQANQVKR [RPS1A]
Result: False

Ask: Is protein stability index at least 2? Consider LIEILRLRALQLYFQKN [RRI2]
Result: False

Ask: Is protein stability index at least 2? Consider INDIRDDDIEKQEQEEK [YCG1]
Result: True

Ask: Is protein stability index at least 2? Consider DSFENYFNQLKPYYFSN [RPN12]
Result: True

Ask: Is protein stability index at least 2? Consider TYDKETITDLIEQGIPK [SIR4]
Result: True

Ask: Is protein stability index at least 2? Consider CLMRSLHKLELKAKNQE [DSN1]
Result: False

Ask: Is protein stability index at least 2? Consider QLLMGDIPELSFFHQSN [RPN3]
Result: True

Ask: Is protein stability index at least 2? Consider SSIVAIDWASPEYGRII [YGL100W/SEH1]
Result: True

Ask: Is protein stability index at least 2? Consider IEIMGILMGFTLKDNIV [RRI1]
Result: True

Ask: Is protein stability index at least 2? Consider ISTLFQRDRHTLAYDRG [PRP8]
Result: True
